All figures here come from PubChem BioAssay (EPA / NIEHS).

- Assay Procedure: ATG_MRE_CIS: Attagene CIS-FACTORIAL HepG2 Assay for human Metal Responsive Element (MRE) (AID 2282954)
- Particulars: HepG2 MRE cis-reporter transcription, Attagene multiplex; actives raise or lower the signal
- Description: ATG_CIS is a cell-based, multiplexed-readout assay that uses HepG2, a human liver cell line, with measurements taken at 24 hours after chemical dosing in a 24-well plate.ATG_MRE_CIS is one of 52 assay component(s) measured or calculated from the ATG_CIS assay. […] This assay endpoint, ATG_MRE_CIS, was analyzed with bidirectional fitting relative to DMSO as the negative control and baseline of activity. […]
Active and inactive are the calls of the source. How the source made its calls: active means hit-call score of the fitted dose curve at least 0.9, where 1 is the maximum; inactive means score below 0.9.
Log the outcome using a class from 1 = active, -1 = inactive

Here's what some known entries look like.
Compound	Class
CCCCCCCCC1CCC(=O)O1 (configuration not stated)	-1
CCc1cccc(CC)c1N(COC)C(=O)CS(=O)(=O)O	-1
C=CC(=O)OCCC(F)(F)C(F)(F)C(F)(F)C(F)(F)C(F)(F)C(F)(F)F	-1

Request: Field: outcome | Entry: CCCCCCCCCCCCCCCCCC[N+](C)(C)Cc1ccccc1
Result: 1

Request: Now give it for COc1cccc(O)c1 too.
Result: -1

Request: Now give it for C=Cc1ccc(O)c(OC)c1 too.
Result: -1

Request: Now give it for COC1=CC(=O)C[C@@H](C)[C@]12Oc1c(Cl)c(OC)cc(OC)c1C2=O too.
Result: -1
